assayed_system: UniProt P49682
Sequence (P49682 whole entry): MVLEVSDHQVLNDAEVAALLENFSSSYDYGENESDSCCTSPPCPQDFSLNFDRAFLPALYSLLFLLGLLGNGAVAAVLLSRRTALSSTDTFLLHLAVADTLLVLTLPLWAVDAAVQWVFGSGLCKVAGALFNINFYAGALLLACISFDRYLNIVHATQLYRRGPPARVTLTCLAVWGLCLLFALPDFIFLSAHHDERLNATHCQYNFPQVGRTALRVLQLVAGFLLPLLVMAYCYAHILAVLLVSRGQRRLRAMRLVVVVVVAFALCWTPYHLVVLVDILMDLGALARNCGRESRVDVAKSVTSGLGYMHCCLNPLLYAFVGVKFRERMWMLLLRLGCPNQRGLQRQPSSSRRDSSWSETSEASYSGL
method_summary: 125I-CXCL10 competition radioligand binding assay;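 further: One-hour incubation of membranes with tracer, bound radioligand separated by glass fibre filtration, IC50 derived from four-parameter nonlinear fit of competition curves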
measurement_context: displacement of 125I-CXCL10 from membranes of CHO cells expressing human recombinant CXCR3-A
pIC50: −log10 of the molar value.
measured_metric: pIC50

[[record]]
molecule = "CCCN(Cc1ccc(OCCN2C(=O)CCC2=O)c(CC)c1)C(c1ccc(Cl)cc1)C1(C(=O)O)CC1 (stereo not drawn)"
assayed_system = "UniProt P49682"
measured_metric = "pIC50"
endpoint_result = 6.20

[[record]]
molecule = "O=C(O)CC(c1ccc(Cl)cc1)N(Cc1ccc(OCCN2C(=O)CCC2=O)c(F)c1)CC1CCCCC1 (stereo not drawn)"
assayed_system = "UniProt P49682"
measured_metric = "pIC50"
endpoint_result = 6.67

[[record]]
molecule = "O=C(O)CC(c1ccc(Cl)cc1)N(Cc1ccc(OCCN2C(=O)CCC2=O)c(F)c1)CC1CC1 (stereo not drawn)"
assayed_system = "UniProt P49682"
measured_metric = "pIC50"
endpoint_result = 6.88

[[record]]
molecule = "Cc1cc(CN(CC2CCCC2)[C@@H](CC(=O)O)c2ccc(Cl)cc2)ccc1OCCN1C(=O)CN(C)C1=O"
assayed_system = "UniProt P49682"
measured_metric = "pIC50"
endpoint_result = 6.76

[[record]]
molecule = "COc1cc(CN(CC(C)C)C(CC(=O)O)c2ccc3c(c2)CCO3)ccc1CCCN1C(=O)CCC1=O (stereo not drawn)"
assayed_system = "UniProt P49682"
measured_metric = "pIC50"
endpoint_result = 7.37

[[record]]
molecule = "Cc1cc(CN(CC2CCCC2)C(CC(=O)O)c2ccc(Cl)c(Cl)c2)ccc1OCCN1C(=O)CCC1=O (stereo not drawn)"
assayed_system = "UniProt P49682"
measured_metric = "pIC50"
endpoint_result = 6.92

[[record]]
molecule = "Cc1cc(CN(CC2CCCC2)C(CC(=O)O)c2ccc3c(c2)CCO3)ccc1OCCN1C(=O)CCC1=O (stereo not drawn)"
assayed_system = "UniProt P49682"
measured_metric = "pIC50"
endpoint_result = 7.34

[[record]]
molecule = "CCc1cc(CN(CC2CCCCC2)C(CC(=O)O)c2ccc(Cl)cc2)ccc1OCCN1C(=O)CCC1=O (stereo not drawn)"
assayed_system = "UniProt P49682"
measured_metric = "pIC50"
endpoint_result = 7.29

[[record]]
molecule = "CC(C)CN(Cc1ccc(OCCN2C(=O)CCC2=O)c(F)c1)C(CC(=O)O)c1ccc(Cl)c(Cl)c1 (stereo not drawn)"
assayed_system = "UniProt P49682"
measured_metric = "pIC50"
endpoint_result = 6.52

[[record]]
molecule = "COc1cc(CN(CC2CCCCC2)C(CC(=O)O)c2ccc(Cl)c(F)c2)ccc1OCCN1C(=O)CCC1=O (stereo not drawn)"
assayed_system = "UniProt P49682"
measured_metric = "pIC50"
endpoint_result = 7.37

[[record]]
molecule = "COc1cc(CN(CC2CCCCC2)C(CC(=O)O)c2ccc(Cl)cc2)ccc1OCCN1C(=O)CCC1=O (stereo not drawn)"
assayed_system = "UniProt P49682"
measured_metric = "pIC50"
endpoint_result = 7.40

[[record]]
molecule = "COc1cc(CN(CC2CC2)C(CC(=O)O)c2ccc(Cl)cc2)ccc1CCCN1C(=O)CCC1=O (stereo not drawn)"
assayed_system = "UniProt P49682"
measured_metric = "pIC50"
endpoint_result = 6.72

[[record]]
molecule = "CCCN(Cc1ccc(OCCN2C(=O)CCC2=O)c(C)c1)C(c1ccc(Cl)cc1)C(C)C(=O)O (stereo not drawn)"
assayed_system = "UniProt P49682"
measured_metric = "pIC50"
endpoint_result = 6.57

[[record]]
molecule = "CCc1cc(CN(CC2CCCCC2)C(CC(=O)O)c2ccc(Cl)c(F)c2)ccc1OCCN1C(=O)CCC1=O (stereo not drawn)"
assayed_system = "UniProt P49682"
measured_metric = "pIC50"
endpoint_result = 6.84

[[record]]
molecule = "Cc1cc(CN(CC(C)C)C2c3ccc(Cl)cc3CC2C(=O)O)ccc1OCCN1C(=O)CCC1=O (stereo not drawn)"
assayed_system = "UniProt P49682"
measured_metric = "pIC50"
endpoint_result = 6.10

